Test system: Danio rerio larvae Tg(actc1b:ZsGreen-LC3), 3 dpf
Assay: LC3 puncta relative area vs vehicle, with NH4Cl (autophagic flux) (log2 fold change); higher = more autophagy
Details: 10 µM; treatment time 16 h; NH4Cl: + 100 mM, 4 h
Structures can show the parent of a compound that is named as a salt.
readout-kind: LC3 puncta (log2)
Please reply with the value in numeric form only.

Ask: Could you tell me which LC3 puncta (log2) is on file for "CN1C[C@H](CNC(=O)OCc2ccccc2)C[C@@H]2c3cccc4c3c(cn4C)C[C@H]21" ?
Result: 0.408

Ask: Could you tell me which LC3 puncta (log2) is on file for O=C(Cc1ccc(Cl)c(Cl)c1)N1CCCCC1CN1CCCC1 (stereo not given) ?
Result: 0.493

Ask: Could you tell me which LC3 puncta (log2) is on file for N=C(NCc1ccc(Cl)cc1)SCCCc1c[nH]cn1 [Clobenpropit dihydrobromide] ?
Result: 0.922

Ask: Could you tell me which LC3 puncta (log2) is on file for O=C1CCCN1CC#CCN1CCCC1 [Oxotremorine sesquifumarate] ?
Result: 0.192

Ask: Could you tell me which LC3 puncta (log2) is on file for "C[C@H](N)Cc1cnc[nH]1" ?
Result: 0.58

Ask: Could you tell me which LC3 puncta (log2) is on file for OC1CCCCC1N1CCC(c2ccccc2)CC1 (stereo not given) [(?)-Vesamicol hydrochloride] ?
Result: 0.751

Ask: Could you tell me which LC3 puncta (log2) is on file for "COc1ccc(C(=O)N2CCCC2=O)cc1" ?
Result: 0.0699

Ask: Could you tell me which LC3 puncta (log2) is on file for "COc1ccc(CNC(=O)/C=C/c2ccc3[nH]cc(CCN(C)C)c3c2)cc1" ?
Result: 0.115

Ask: Could you tell me which LC3 puncta (log2) is on file for N=C(N)NN [Aminoguanidine hydrochloride] ?
Result: 0.662

Ask: Could you tell me which LC3 puncta (log2) is on file for CN1C(=O)CCS(=O)(=O)C1c1ccc(Cl)cc1 (stereo not given) ?
Result: 0.287

###

System: Danio rerio larvae Tg(actc1b:ZsGreen-LC3), 3 dpf
Experiment: LC3 puncta relative area vs vehicle, without NH4Cl (log2 fold change); higher = more autophagosomes
Settings: 10 µM; treatment time 16 h; NH4Cl: none
Structures can show the parent of a compound that is named as a salt.
Would you kindly list LC3 puncta (log2) for each of these molecules?
Please reply with the value in numeric form only.

Ask: Could you tell me which LC3 puncta (log2) is on file for CC(C)C[C@H]1C(=O)N2CCC[C@H]2[C@]2(O)O[C@](NC(=O)[C@@H]3C=C4c5cccc6[nH]c(Br)c(c56)C[C@H]4N(C)C3)(C(C)C)C(=O)N12 [Bromocriptine mesylate] ?
Result: 0.17

Ask: Could you tell me which LC3 puncta (log2) is on file for CC(=O)N1CC[N+](C)(C)CC1 [4-Acetyl-1,1-dimethylpiperazinium iodide] ?
Result: -0.21

Ask: Could you tell me which LC3 puncta (log2) is on file for COc1ccc(C(=O)N2CCCC2=O)cc1 [Aniracetam] ?
Result: 0.228

Ask: Could you tell me which LC3 puncta (log2) is on file for Oc1ccc2c3c1O[C@H]1c4c(c5ccccc5n4Cc4ccccc4)C[C@@]4(O)C(C2)N(CC2CC2)CC[C@]314 [N-Benzylnaltrindole hydrochloride] ?
Result: 0.458

Ask: Could you tell me which LC3 puncta (log2) is on file for C=CCN1CC[C@]23c4c5ccc(O)c4O[C@H]2C(=O)CC[C@@]3(O)[C@H]1C5 [Naloxone hydrochloride] ?
Result: 0.085

Ask: Could you tell me which LC3 puncta (log2) is on file for O=C(O)/C=C/CO [trans-4-Hydroxycrotonic acid] ?
Result: -0.0373

Ask: Could you tell me which LC3 puncta (log2) is on file for OC1CCCCC1N1CCC(c2ccccc2)CC1 (stereo unspecified) [(?)-Vesamicol hydrochloride] ?
Result: 0.548

Ask: Could you tell me which LC3 puncta (log2) is on file for CCCCCCC[n+]1ccc(-c2cc[n+](CCCCCCC)cc2)cc1 [DHBP dibromide] ?
Result: 0.00945

Ask: Could you tell me which LC3 puncta (log2) is on file for Cc1onc(O)c1CC(N)C(=O)O (racemic) ?
Result: -0.391

Ask: Could you tell me which LC3 puncta (log2) is on file for "C(=C\c1ccccc1)/CN1CCN(CCOC(c2ccccc2)c2ccccc2)CC1" ?
Result: 0.421

Ask: Could you tell me which LC3 puncta (log2) is on file for CC(CN)CC(=O)O (stereo unspecified) [3-Methyl-GABA] ?
Result: 0.26

Ask: Could you tell me which LC3 puncta (log2) is on file for CC(C)[C@@]1(NC(=O)[C@@H]2C[C@@H]3c4cccc5[nH]cc(c45)C[C@H]3N(C)C2)O[C@@]2(O)[C@@H]3CCCN3C(=O)[C@H](Cc3ccccc3)N2C1=O [Dihydroergocristine mesylate] ?
Result: -0.412

Ask: Could you tell me which LC3 puncta (log2) is on file for c1ccc2sc(C3(N4CCCCC4)CCCCC3)cc2c1 [BTCP maleate] ?
Result: 0.288

Ask: Could you tell me which LC3 puncta (log2) is on file for CC(C(=O)OC1CC2CCC(C1)N2C)c1ccc(Br)cc1 (stereo unspecified) [PG-9 maleate] ?
Result: 0.116

Ask: Could you tell me which LC3 puncta (log2) is on file for NC(C(=O)O)c1nn[nH]n1 (racemic) [(RS)-(Tetrazol-5-yl)glycine] ?
Result: 0.24

Ask: Could you tell me which LC3 puncta (log2) is on file for CCCN(C/C=C/I)C1CCc2ccc(O)cc2C1 (stereo unspecified) [7-Hydroxy-PIPAT maleate] ?
Result: -0.263

Ask: Could you tell me which LC3 puncta (log2) is on file for CCC(Oc1ccc(Cl)cc1)C(=O)OC1C[C@H]2CC[C@@H](C1)N2C (stereo partly specified) [SM-21 maleate] ?
Result: 0.226

Ask: Could you tell me which LC3 puncta (log2) is on file for CO[C@]12C[C@@H](COC(=O)c3cncc(Br)c3)CN(C)[C@@H]1Cc1cn(C)c3cccc2c13 [Nicergoline] ?
Result: 0.51

Ask: Could you tell me which LC3 puncta (log2) is on file for "CS(=O)(=O)Nc1ccc(Cc2noc(-c3ccc4[nH]cc(CCN)c4c3)n2)cc1" ?
Result: 0.431

Ask: Could you tell me which LC3 puncta (log2) is on file for N[C@@H](Cn1oc(=O)[nH]c1=O)C(=O)O [L-Quisqualic acid] ?
Result: 0.387

Ask: Could you tell me which LC3 puncta (log2) is on file for S=C(NC1CCCCC1)N1CCC(c2cnc[nH]2)CC1 [Thioperamide] ?
Result: 0.0474

Ask: Could you tell me which LC3 puncta (log2) is on file for NCCc1c[nH]c2ccc(C(N)=O)cc12 [5-Carboxamidotryptamine maleate] ?
Result: 0.0843

Ask: Could you tell me which LC3 puncta (log2) is on file for "C=CCN1C[C@H](C)N([C@H](c2ccc(C(=O)N(CC)CC)cc2)c2cccc(OC)c2)C[C@H]1C" ?
Result: 0.784

Ask: Could you tell me which LC3 puncta (log2) is on file for C=C(C)[C@H]1CN[C@H](C(=O)O)[C@H]1CC(=O)O [Kainic acid] ?
Result: 0.377

Ask: Could you tell me which LC3 puncta (log2) is on file for CCCN(CCC)[C@@H]1CCc2c(OC)cccc2[C@@H]1C [(+)-UH 232 maleate] ?
Result: 0.36

Ask: Could you tell me which LC3 puncta (log2) is on file for N=C(NCc1ccc(Cl)cc1)SCCCc1c[nH]cn1 [Clobenpropit dihydrobromide] ?
Result: 0.454

Ask: Could you tell me which LC3 puncta (log2) is on file for CCCN(CCC)C1CCc2cccc(O)c2C1 (stereo unspecified) [8-Hydroxy-DPAT hydrobromide] ?
Result: 0.14

Ask: Could you tell me which LC3 puncta (log2) is on file for O=C(CCCN1CCC2(CC1)C(=O)N(Cc1cccc(F)c1)CN2c1ccccc1)c1ccc(F)cc1 [3'-Fluorobenzylspiperone maleate] ?
Result: 0.503

Ask: Could you tell me which LC3 puncta (log2) is on file for c1ccc(CC(c2ccccc2)N2CCCCC2)cc1 (stereo unspecified) [(?)-1-(1,2-Diphenylethyl)piperidine maleate] ?
Result: 0.167

Ask: Could you tell me which LC3 puncta (log2) is on file for "C[C@H](N)Cc1cnc[nH]1" ?
Result: 0.17

Ask: Could you tell me which LC3 puncta (log2) is on file for CC(=O)NCCc1c[nH]c2ccccc12 [N-Acetyltryptamine] ?
Result: -0.161
